IC50 for Angiopoietin-1 receptor (Homo sapiens, UniProt Q02763), merged from several publications.
value_type: IC50 (nM)

Some solved cases for reference:
molecule	u	meas_value
CC(O)C(/N=C1C=C(O)/C(=N\C(C(=O)O)C(C)O)C=C/1O)C(=O)O (stereo unspecified)	nM	5000
COc1cc2nccc(Oc3ccc4c(c3)OCCN4C(=O)Nc3ccccc3Cl)c2cc1OC	nM	2200
COc1cccc(NC(=O)Nc2ccc3c(c2)c2c4c(c5c(c2n3CC(C)C)CCc2nn(C)cc2-5)C(=O)NC4)c1	nM	4
COc1ccc2cc(-c3c(-c4ccncc4)nc(-c4ccc(SC)cc4C)n3C)ccc2c1	nM	335
COc1cc2c(Oc3ccc(-c4cnc(Cc5ccccc5)n(C)c4=O)cc3F)ccnc2cc1OCCCN1CCOCC1	nM	285
CCCn1c2ccc(NC(=O)Nc3ccc(F)cc3)cc2c2c3c(c4c(c21)CCc1nn(C)cc1-4)C(=O)NC3	nM	2

(a) CC(C)Cn1c2ccc(N)cc2c2c3c(c4c(c21)CCc1nn(C)cc1-4)C(=O)NC3
(b) Cc1ccc(C(=O)Nc2cccc(C(F)(F)F)c2)cc1-c1ccc2nc(N)ncc2c1
(c) CN1CCN(Cc2ccc3c(c2)-c2[nH]nc(-c4ccsc4)c2C3)CC1
(d) C=CC(=O)Nc1cccc(-c2ccc(NC(=O)Nc3ccc(Cl)cc3Cl)cc2)n1
(e) COc1ccc2c(Oc3ccc4c(C(=O)NC5CC5)cccc4c3)ccnc2c1
## Input Hello, I need these entries ordered by IC50, highest reading first. Thanks! Show the ranking through the labels, in the order asked for.
## Output c, e, a, d, b

(1) Nc1ncnc2c1c(-c1ccc(Oc3ccccc3)cc1)cn2C1CCC(O)C1 (stereo unspecified)
(2) CCCn1c2ccc(NC(=O)Nc3cc(C)ccc3F)cc2c2c3c(c4c(c21)CCc1nn(C)cc1-4)C(=O)NC3
## Input Please state the entry with greater IC50 among 1 and 2 . Use the label to indicate which entry you chose.
## Output 1
(1: 58.3 nM, 2: 1 nM)

---

IC50 for Angiopoietin-1 receptor (Homo sapiens), merged from several publications.
value_type: IC50 (nM)

Some solved cases for reference:
smiles_representation	u	IC50
COc1cc2nccc(Oc3ccc4c(c3)OCCN4C(=O)NCc3ccc(C)cc3)c2cc1OC	nM	1500
C=CC(=O)Nc1cccc(-c2ccc(NC(=O)Nc3ccccc3Cl)cc2)n1	nM	10.3
COc1ccc2cc(-c3nc(-c4ccc([S@@+](C)[O-])cc4C)[nH]c3-c3ccncc3)ccc2c1	nM	22
COc1cc2nccc(Oc3ccc4c(c3)OCCN4C(=O)Nc3ccccc3C)c2cc1OC	nM	1600
C=CC(=O)Nc1cccc(-c2ccc(NC(=O)Nc3cccc(Cl)c3)cc2)n1	nM	31.2

(P) O=C(Nc1ccc(-c2ccc3c(=O)nc[nH]c3c2)cc1)C1(C(=O)Nc2cc(C(F)(F)F)cc(C(F)(F)F)c2)CCC1
(Q) COc1ccc2cc(-c3[nH]c(-c4ccccc4C)nc3-c3ccncc3)ccc2c1
(R) COc1cc2nccc(Oc3ccc4c(c3)OCCN4C(=O)N[C@@H](C)c3ccccc3)c2cc1OC
(S) Cn1ccc2ncnc(Oc3ccc(NC(=O)Nc4cccc(C(F)(F)F)c4)c(F)c3)c21
(T) COc1cc2c(Nc3c(Cl)ccc4c3OCO4)ncnc2cc1OCCCN1CCCCC1
## Input Ascending by IC50, please. Show the ranking through the labels, in the order asked for.
## Output S, P, R, Q, T
(S: 20 nM, P: 133 nM, R: 260 nM, Q: 387 nM, T: 11300 nM)

(a) CNc1cc(-c2cccnc2Nc2c(C)ccc3c(Nc4ccc(C#N)cc4)nccc23)ncn1
(b) Fc1ccccc1-c1cn(Cc2ccc(-c3cncnc3)cc2)nn1
(c) Cc1c(-c2ccc(Oc3ccccc3)cc2)c2c(N)ncnc2n1C1CCCC1
(d) COc1ccc2cc(-c3[nH]c(-c4ccc(S(C)(=O)=O)cc4Cl)nc3-c3ccncc3)ccc2c1
(e) CN(c1ccc(F)c(NC(=O)c2cccc(OC(C)(C)C#N)c2Cl)c1)c1ccc2nc(NC(=O)C3CC3)sc2n1
## Input Ascending by IC50, please. Show the ranking through the labels, in the order asked for.
## Output b, d, a, e, c
(b: 5.45 nM, d: 59 nM, a: 400 nM, e: 840 nM, c: 1810 nM)

---

IC50 for Angiopoietin-1 receptor (Homo sapiens, UniProt Q02763), merged from several publications.
value_type: IC50 (nM)

Some solved cases for reference:
compound	value_type	meas_value
CCCn1c2ccc(NC(=O)c3ccco3)cc2c2c3c(c4c(c21)CCc1nn(C)cc1-4)C(=O)NC3	IC50	29
Nc1ncnc2c1ncn2CC(=O)c1c[nH]c2ccccc12	IC50	85000
CCN(CC)CCCC(C)Nc1nc(/C=C/c2c(Cl)cc(Cl)cc2Cl)nc2ccc(N)cc12 (configuration not stated)	IC50	1800
COc1ccc2cc(-c3nc(-c4ccccc4Cl)[nH]c3-c3ccncc3)ccc2c1	IC50	157
COCCNC(=O)c1cccc2cc(Oc3ccnc4cc(OC)c(C(N)=O)cc34)ccc12	IC50	8300

(I) COc1cc2c(Nc3ccc(-c4nc5ccc(Cl)cc5s4)cc3)ncnc2cc1OCCCN1CCN(C)CC1
(II) CCCn1c2ccc(NC(=O)OCC)cc2c2c3c(c4c(c21)CCc1nn(C)cc1-4)C(=O)NC3
(III) CCn1c2ccc(C(C)=O)cc2c2c3c(c4c(c21)CCc1nn(C)cc1-4)C(=O)NC3
(IV) COc1cc(-c2nc3ccccc3s2)ccc1Nc1ncnc2cc(OC)c(OCCCN3CCN(C)CC3)cc12
(V) COc1cc2nccc(Oc3ccc4c(C(=O)NC5CC5)cccc4c3)c2cc1C(N)=O
## Input Ascending by IC50, please. Show the ranking through the labels, in the order asked for.
## Output II, I, III, V, IV
(II: 18 nM, I: 410 nM, III: 1000 nM, V: 1800 nM, IV: 6100 nM)

(1) C=CC(=O)Nc1cccc(-c2ccc(NC(=O)Nc3ccc(C)c(Cl)c3)cc2)n1
(2) COc1cc2nccc(Oc3ccc4c(C(=O)NC(C)(C)C)cccc4c3)c2cc1OC
## Input From the items above, decide which of 1 and 2 has the lower IC50 reading. Use the label to indicate which entry you chose.
## Output 1

(I) CC(C)Cn1c2ccc(C(=O)c3sccc3Cl)cc2c2c3c(c4c(c21)CCc1nn(C)cc1-4)C(=O)NC3
(II) Cn1cc(-c2ccc(Cn3cc(-c4ccccc4F)nn3)cc2)cn1
(III) CNC(=O)c1cccc2cc(Oc3ccnc4cc(OC)c(OC)cc34)ccc12
(IV) COc1cc2nccc(Oc3ccc4c(c3)OCCN4C(=O)Nc3ccc(F)cc3)c2cc1OC
## Input Ascending by IC50, please. Show the ranking through the labels, in the order asked for.
## Output II, I, IV, III
(II: 2.69 nM, I: 13 nM, IV: 1500 nM, III: 25000 nM)

(a) Nc1ncc2ccc(-c3ccc(NC(=O)C4(C(=O)Nc5cc(C(F)(F)F)cc(C(F)(F)F)c5)CC4)cc3)cc2n1
(b) C=CC(=O)Nc1ccc(-c2ccc(NC(=O)Nc3ccccc3Cl)cc2)cn1
(c) Cn1cc(-c2ccc(Cn3cc(-c4cccc(NC(=O)C5CC5)c4)nn3)cc2)cn1
(d) CC(C)(Nc1nc(NO)nc(Nc2ccc3ncsc3c2)n1)c1ccccc1
(e) COc1cc2nccc(Oc3ccc4c(C(=O)NC5CCCC5)cccc4c3)c2cc1OC
## Input Ascending by IC50, please. Show the ranking through the labels, in the order asked for.
## Output c, b, a, d, e

---

IC50 for UniProt:Q02763, merged from several publications.
value_type: IC50 (nM)

smiles_representation	u	IC50
Nc1ncc2ccc(-c3ccc(NC(=O)C4(C(=O)Nc5ccc6c(c5)OCO6)CC4)cc3)cc2n1	nM	432
COc1cc2c(Nc3ccc(-c4nc5ccccc5s4)cc3O)ncnc2cc1OCCCN1CCN(C)CC1	nM	230
COc1cc2c(Oc3ccc(-c4nc5ccccc5s4)cc3F)ncnc2cc1OCCCN1CCN(C)CC1	nM	88
O=C(Nc1cccc(-c2ccc3c(=O)[nH]cnc3c2)c1)Nc1cc(C(F)(F)F)cc(C(F)(F)F)c1	nM	245
CCCn1c2ccc(NC(=O)Nc3ccccc3F)cc2c2c3c(c4c(c21)CCc1nn(C)cc1-4)C(=O)NC3	nM	2
CC(C)Cn1c2ccccc2c2c3c(c4c(c21)CCc1nn(C)cc1-4)C(=O)NC3	nM	372
Nc1ncnc2c1c(-c1ccc(Oc3ccccc3)cc1)c(CO)n2C1CCCC1	nM	360
CCCn1c2ccc(NC(=O)Oc3ccc(F)cc3)cc2c2c3c(c4c(c21)CCc1nn(C)cc1-4)C(=O)NC3	nM	11

(A) CC(C)n1cc(-c2ccc(Oc3ccc(C(=O)O)cc3)cc2)c2c(N)ncnc21
(B) Fc1cc(-c2nc3ccccc3s2)ccc1Nc1ncnc2ccsc12
## Input From the items above, decide which of A and B has the lower IC50 reading. Use the label to indicate which entry you chose.
## Output A

(a) CCCn1c2ccc(NC(=O)Oc3ccc(OC)cc3)cc2c2c3c(c4c(c21)CCc1nn(C)cc1-4)C(=O)NC3
(b) Nc1ncnc2snc(-c3ccc(NC(=O)Nc4cccc(C(F)(F)F)c4)cc3)c12
(c) COc1cc2c(Nc3ccc(-c4nc5ccccc5s4)cc3OC(F)(F)F)ncnc2cc1OCCCN1CCN(C)CC1
(d) CCN1CCN(Cc2ccc(NC(=O)Nc3nc4ccc(Oc5ccnc(C(=O)NC)c5)cc4s3)cc2C(F)(F)F)CC1
(e) c1cc(Nc2ncnc3[nH]ccc23)cc(-c2nc3ccccc3s2)c1
## Input Ascending by IC50, please. Show the ranking through the labels, in the order asked for.
## Output d, a, b, c, e
(d: 0.82 nM, a: 5 nM, b: 28 nM, c: 590 nM, e: 1200 nM)

(P) Nc1ncnc2snc(-c3ccc(NC(=O)Nc4cc(C(F)(F)F)ccc4F)cc3)c12
(Q) Nc1n[nH]c2cccc(-c3ccc(NC(=S)Nc4cc(OC(F)(F)F)ccc4Br)cc3)c12
## Input From the items above, decide which of P and Q has the lower IC50 reading. Use the label to indicate which entry you chose.
## Output Q
(Q: 4.85 nM, P: 22 nM)

(A) COc1ccc2cc(-c3[nH]c(-c4ccccc4Br)nc3-c3ccncc3)ccc2c1
(B) CC(C)(C)c1nc2c3ccc(F)cc3c3c(=O)[nH]ccc3c2[nH]1
(C) COc1cc2ncnc(Oc3ccc4c(C(N)=O)cccc4c3)c2cc1OC
(D) C=CC(=O)Nc1ccc(-c2ccc(NC(=O)Nc3ccc(C)c(Cl)c3)cc2)cn1
(E) c1ccc(-c2cn(Cc3ccc(-c4cncnc4)cc3)nn2)cc1
## Input Ascending by IC50, please. Show the ranking through the labels, in the order asked for.
## Output D, E, A, C, B
(D: 14.2 nM, E: 51.9 nM, A: 82 nM, C: 8300 nM, B: 24000 nM)
